Biological target: MMP-9
Assay: cell-based or functional assay
Measure name: IC50 for the inhibition of MMPs using a fluorescein conjugated gelatin (µM)

Binder	Value
ENLHLPLPLL [ENLHLPLPLL (SEQ ID NO:19)]	300
ENLLRFFVAPFPEVFG [ENLLRFFVAPFPEVFG (SEQ ID NO:22)]	150

I: NENLLRFFVAPFPEVFG [NENLLRFFVAPFPEVFG (SEQ ID NO:21)]
II: VENLHLPLPLL [VENLHLPLPLL (SEQ ID NO:18)]
Sorting by IC50 for the inhibition of MMPs using a fluorescein conjugated gelatin in descending order, would I or II appear first? Pick one and reply with its label.
II

All values here come from patent US20050187155A1.
